Test system: MARK4;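 note: KINOMEscan kinase panel screen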
conditions: concentration: 1 μM, replicates: in singlicate; n = 1

| compound | unit_of_measure | %Inh |
| --- | --- | --- |
| CNC(=O)c1ccc(C)c(-n2c(C)cc(OCc3ccc(F)cc3F)c(Br)c2=O)c1 | % | 0 |
| COc1cccc(C2=C(Nc3cc(Cl)c(O)c(Cl)c3)C(=O)NC2=O)c1 [SB-390767] | % | 0 |
| Cn1cnc2c(N)ncnc21 [SKF-97623] | % | 0 |
| CNc1nc(-c2ccc3c(N)n[nH]c3c2)cc(N2C[C@@H](C(=O)NC3CCCCC3)OC[C@H]2C)n1 [GSK2375584] | % | 18 |
| Cl.Cl.Cl.N#Cc1ccc(CCNc2nccc(-c3cccc(CN4CCNCC4)c3)n2)cc1 [GSK2137462] | % | 0 |
| COc1cccc(NC(=O)Nc2ccc(C)c(-c3ccc(C(=O)Nc4ccncc4)cc3)c2)c1 [GSK1398474] | % | 20 |
| COc1ccc(Nc2nccc(NCCNC(=O)Nc3cc(C)ccc3C)n2)cc1 [GSK1379899] | % | 9 |
| COc1ccc(CSc2nnc(-c3ccc4nccn4c3)o2)cc1C(F)(F)F | % | 6 |
| COc1ccc(-c2coc3ccc(-c4nnc(C)o4)cc23)cc1 | % | 100 |
| Cc1ccc(-c2nc(Nc3ccncc3)c3ccccc3n2)s1 [GSK189015] | % | 13 |
| Cc1cccc2c(-c3ccncn3)c(-c3ccc(F)cc3)nn12 [GW515532] | % | 0 |
| CCn1c(-c2ccccc2)nc2cnccc21 [SB-733416] | % | 26 |
| Nc1cccc(-c2ccc3c(N)n[nH]c3c2)n1 [GSK2192730] | % | 0 |
| Nc1nccc(-c2c(-c3ccc(F)cc3)ncn2C2CCN(Cc3ccccc3)CC2)n1 [SB-219980] | % | 1 |
| NS(=O)(=O)c1cccc(N/C=C2\C(=O)Nc3ccc(S(=O)(=O)Cc4c(Cl)cccc4Cl)cc32)c1 [GSK398099] | % | 0 |
| CCCCc1nn2ncccc2c1-c1ccnc(NC2CC2)n1 [GW684374] | % | 0 |
| Cc1ccc(NC(=O)c2ccc(Cl)cc2)cc1-c1ccc(C(=O)Nc2ccncc2)cc1 [GSK1398467] | % | 0 |
| CNCc1ccc2nc(NC(=O)c3ccc(C(C)(C)C)cc3)cn2c1 | % | 4 |
| COc1nccc(-c2c(-c3ccc(F)cc3)ncn2CCCN2CCOCC2)n1 [SB-282852] | % | 0 |
| Cc1ccccc1Cn1ccn2c(=O)cc(N3CCOCC3)nc12 [GSK2269905] | % | 96.6 |
| Fc1ccc(-c2nc[nH]c2-c2ccncc2)cc1 [SB-217360] | % | 30 |
| COc1ccc(CSc2nnc(-c3ccc4c(c3)CCO4)o2)cc1 | % | 0 |
| CC(=O)c1c(C)c2cnc(Nc3ccc(N4CCNCC4)cn3)nc2n(C2CCCC2)c1=O | % | 13 |
| Fc1ccc(-c2nc3n(c2-c2ccncc2)CCS3)cc1 [GI98581] | % | 12 |
| Cc1ccc(NC(=O)Nc2ccccc2)cc1-c1ccc(C(=O)Nc2ccncc2)cc1 [GSK1398471] | % | 0 |
| CC[C@@H]1CO[C@H](C(=O)Nc2ccccc2)CN1c1cc(-c2ccc3c(N)n[nH]c3c2)nc(NC)n1 [GSK2376236] | % | 0 |
| Cc1nccc(-c2c(-c3ccc(F)cc3)ncn2CCCN2CCOCC2)n1.Cl [SB-282975] | % | 45 |
| FC(F)(F)c1ccccc1-c1cc(-c2c[nH]nc2-c2ccccn2)ccn1 [GW679396] | % | 12 |
| Cc1cnc(N)c(/C=C/c2cncc(C(=O)NCCc3ccc(Cl)cc3Cl)c2)c1.Cl [GSK190937] | % | 0 |
